Biological target: Proteasome subunit beta (Trypanosoma cruzi) (UniProt O96673)
Sequence (whole entry): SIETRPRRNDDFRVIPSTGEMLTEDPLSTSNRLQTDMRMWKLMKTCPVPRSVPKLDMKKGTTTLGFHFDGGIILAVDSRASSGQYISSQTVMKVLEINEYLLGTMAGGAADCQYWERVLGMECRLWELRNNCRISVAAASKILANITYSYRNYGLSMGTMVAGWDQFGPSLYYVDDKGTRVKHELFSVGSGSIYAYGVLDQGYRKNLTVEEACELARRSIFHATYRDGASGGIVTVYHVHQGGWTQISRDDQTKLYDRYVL
Assay: Trypanosoma cruzi proteasome chymotrypsin-like activity (TcProtChymo) assay.
Type: functional
Set-up: scale not given: in the data most compounds retested in dose-response had high values
Conditions: 9.37 µM
Exercise: for every item that follows, state its recorded Percent Effect.
Answers are plain numbers, in %.

See these solved cases before continuing.
Cc1cc(NC(=O)Cn2cc(C#N)c(=O)c3cc(Br)ccc32)no1 : 13.8
CCn1cc(NC(=O)C2CCN(CC(=O)N3CCOCC3)CC2)cn1 : 3.98
O=C([C@H]1C[C@H]2OCC[C@H]2N(C(=O)C2CCOCC2)C1)N1CCCCO1 : 2.73
CC(C)Oc1cc(N2C[C@@H](C)O[C@@H](C)C2)nc(N)n1 : 12.8
CNS(=O)(=O)c1cccc(CNc2ccc(C(F)(F)F)nn2)c1 : -1.62

Record O=C1CC(c2ccsc2)c2c(n(C3CCOCC3)[nH]c2=O)N1 (stereo unspecified) . Reported Percent Effect: 16.4
